system: Kasumi; assay: MTS proliferation assay, Kasumi; assay type: cell-based; details: Homo sapiens; Kasumi, 96-hour treatment; read-out: IC50 (MTS proliferation)
Quantity Kind: pIC50
# reply with the number alone; pIC50 is -log10 of concentration in mol/L

The value of pIC50 measured for the molecule "CCCCOc1cccc(-c2ccc(-c3cc(C(=O)O)c4cc(F)ccc4n3)cc2)c1" turned out to be 7.35

====

target: hERG (Homo sapiens, UniProt Q12809); test: hERG (Q-Patch)
Sequence (Q12809 whole entry): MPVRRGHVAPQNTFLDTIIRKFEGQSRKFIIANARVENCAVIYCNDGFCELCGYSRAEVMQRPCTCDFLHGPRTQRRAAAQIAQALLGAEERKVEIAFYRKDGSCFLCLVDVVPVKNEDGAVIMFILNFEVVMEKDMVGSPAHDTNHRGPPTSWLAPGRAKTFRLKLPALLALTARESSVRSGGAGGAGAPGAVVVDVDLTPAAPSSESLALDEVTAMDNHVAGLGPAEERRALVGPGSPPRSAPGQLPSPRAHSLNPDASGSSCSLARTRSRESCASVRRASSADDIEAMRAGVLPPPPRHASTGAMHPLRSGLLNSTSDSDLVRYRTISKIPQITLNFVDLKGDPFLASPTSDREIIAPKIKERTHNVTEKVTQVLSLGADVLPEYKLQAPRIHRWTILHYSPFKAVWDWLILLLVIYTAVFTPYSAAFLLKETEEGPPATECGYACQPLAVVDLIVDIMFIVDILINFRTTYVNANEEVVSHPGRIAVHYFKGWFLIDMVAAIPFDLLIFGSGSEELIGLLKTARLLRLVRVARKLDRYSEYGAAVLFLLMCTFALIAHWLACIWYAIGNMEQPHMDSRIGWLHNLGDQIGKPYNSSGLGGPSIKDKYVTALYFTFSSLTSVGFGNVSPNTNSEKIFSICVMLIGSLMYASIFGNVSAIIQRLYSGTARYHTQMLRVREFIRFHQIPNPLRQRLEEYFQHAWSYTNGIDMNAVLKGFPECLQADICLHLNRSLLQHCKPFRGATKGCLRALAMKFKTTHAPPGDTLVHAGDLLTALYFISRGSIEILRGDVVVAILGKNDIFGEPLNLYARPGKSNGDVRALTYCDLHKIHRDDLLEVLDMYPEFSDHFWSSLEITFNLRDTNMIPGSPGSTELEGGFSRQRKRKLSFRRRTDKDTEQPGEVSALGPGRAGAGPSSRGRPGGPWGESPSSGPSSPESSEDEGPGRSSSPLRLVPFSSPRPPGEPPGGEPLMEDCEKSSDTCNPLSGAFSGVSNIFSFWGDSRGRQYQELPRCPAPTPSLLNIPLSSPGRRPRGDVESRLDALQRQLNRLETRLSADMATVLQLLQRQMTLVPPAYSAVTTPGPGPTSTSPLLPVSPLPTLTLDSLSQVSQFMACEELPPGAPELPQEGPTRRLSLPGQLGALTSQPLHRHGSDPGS
Quantity Kind: IC50

Observed IC50 on hERG (Homo sapiens, UniProt Q12809), entry CCCCOc1cccc(-c2ccc(-c3cc(C(=O)O)c4cc(F)ccc4n3)cc2)c1 [HOSU-53] , equals > 30 µM
